Every entry's value here was drawn from patent US6545032B1.

Molecular target: mu opiate receptor (Rattus norvegicus, UniProt P33535)
Construct: from tissue; host or cells: rat brain membranes/homogenate
Sequence (P33535 whole entry): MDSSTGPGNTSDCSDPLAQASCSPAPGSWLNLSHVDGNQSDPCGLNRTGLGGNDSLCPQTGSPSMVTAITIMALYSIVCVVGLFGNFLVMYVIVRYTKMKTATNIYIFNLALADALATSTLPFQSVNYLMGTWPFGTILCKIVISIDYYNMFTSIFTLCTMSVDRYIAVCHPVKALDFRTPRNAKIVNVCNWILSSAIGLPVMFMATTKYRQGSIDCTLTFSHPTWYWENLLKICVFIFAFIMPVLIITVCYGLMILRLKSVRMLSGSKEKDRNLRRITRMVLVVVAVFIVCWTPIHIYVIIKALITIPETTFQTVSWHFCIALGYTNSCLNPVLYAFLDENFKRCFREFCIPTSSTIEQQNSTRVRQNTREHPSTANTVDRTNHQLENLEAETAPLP
Assay: Inhibition of [3H]DAMGO binding to the mu opiate receptor in rat brain homogenates
Conditions: [3H]DAMGO bound; 0.08 mg of compound per milliliter, 7 nM 3H-labeled DAMGO, rat brain membranes
Reported % Bound by item:

{"molecule": "Cc1nc(CC2CCCCC2)c2n1C(C(C)C)C(=O)N2 (centres unmarked) [Pool 46]", "% Bound, %": 60}
{"molecule": "Cc1nc(CC(C)C)c2n1C(C(C)C)C(=O)N2 (centres unmarked) [Pool 37]", "% Bound, %": 66}
{"molecule": "CC(C)c1nc(CCC2CCCC2)n2c1NC(=O)C2C(C)C (centres unmarked)", "% Bound, %": 67}
{"molecule": "Cc1nc(CC2CCCCC2)c2n1C(C(C)C)C(=O)N2 (racemic) [Pool 62]", "% Bound, %": 52}
{"molecule": "Cc1nc(Cc2ccccc2)c2n1C(C(C)C)C(=O)N2 (racemic) [Pool 63]", "% Bound, %": 57}
{"molecule": "CC(C)c1nc(Cc2ccc(Cl)c(Cl)c2)n2c1NC(=O)C2C(C)C (racemic)", "% Bound, %": 71}
{"molecule": "CC(C)c1nc(Cc2ccc(Br)cc2)n2c1NC(=O)C2C(C)C (racemic)", "% Bound, %": 39}
{"molecule": "CCCCC(CC)c1nc(C(C)C)c2n1C(C(C)C)C(=O)N2 (mixture of isomers)", "% Bound, %": 60}
